assayNotes: chemical genetic growth profiling, strain panel (AID 1159580);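 also: tested at 20 µM; growth read once vehicle control cultures reached saturation at 30 °C; lower values mean less growth of the strain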
measurementSetup: S. cerevisiae deletion strains, growth OD, locus YLL026W
Among all 5,500 compounds or so, about 2,000 (36%) were called active. Another 18% or so got no clear call; they are omitted. Rule as the data show it: active = normalized growth mostly below about 0.91 (no sharp cut-off); inconclusive = no clear call, values can overlap the other calls; inactive = mostly above about 0.92. This is one part of the list.
Possible outcomes: active, inactive

1. COc1ccc(/C=C/C(=O)c2ccc(O)cc2O)cc1 | active
2. CC1(C)O[C@@H]2CC3C4CCC5=CC(=O)C=C[C@]5(C)C4[C@@H](O)C[C@]3(C)[C@]2(C(=O)CO)O1 (some centres not stated) | inactive
3. CC12CCC(CC1)C(C)(C)O2 | inactive
4. O=C(NC(Cc1cc(=O)[nH]c2ccccc12)C(=O)O)c1ccc(Cl)cc1 (configuration not stated) | inactive
5. CCn1cc(C(=O)O)c(=O)c2cnc(N3CCNCC3)nc21 | inactive
6. C[C@@H]1C[C@@H]([C@H](O)CC2CC(=O)NC(=O)C2)C(=O)[C@@H](C)C1 | active
7. COc1ccc(C[C@H](N)C(=O)N[C@@H]2[C@@H](CO)OC(n3cnc4c(N(C)C)ncnc43)[C@@H]2O)cc1 (some centres not stated) | inactive

Cited source: PubChem BioAssay AID1159580
